# Assay Target: T1, human MUC16 (mucin 16), endogenously expressed on cells (human)
# T1 construct: Endogenous MUC16 on OVCAR-3 / OVCAR3-Luc / PEO-1 / HPAC cells; also called hMUC16
# Test Name: MSD electrochemiluminescence cell binding; RLU ratio OVCAR-3/SK-OV-3; Ab 1.9 nM
Consider the following binders and their measured Ratio: anti-MUC16 Binding OVCAR-3/SK-OV-3 readings.
Assay Readout: Ratio: anti-MUC16 Binding OVCAR-3/SK-OV-3 (ratio)

| Binder | Units Symbol | Value |
| --- | --- | --- |
| H1H8770P (antibody, human IgG1, V domains shown, Human IgG1 (H1H)) VH: QVQLVESGGGVVQPGRSLRLSCAASGFTFSDHGMHWVRQAPGKGLEWVAVISYHGSNKHYADSVKGRFTISRDNSKNALYLQMNSLRPEDTAMYYCAKDGYDFWNGYSLFDYWGQGTLVTVSS VL: DIQMTQSPSSLSASVGDRVTITCRASQSISNYLNWYQQKPGKAPKLLIYTASNLLSGVPSRFSGSGSGTDFTLTISSLQPEDFATYYCQQSYSTPPITFGQGTKLEIK | ratio | 9 |
| H2M7135N (antibody, mouse IgG2, V domains shown, Mouse IgG2 constant region (H2M)) VH: EVQLVESGGGLVQAGGSLRLSCAASGFTFSYHEMNWVRQAPGKGLEWVSYIGSRGTTKHYADPVKGRFTISRDNAKNSLYLQMNSLRAEDTAVYYCASEVGSILGYSMDVWGQGTTVTVSS VL: DIQMTQSPSSLSASVGDRVTITCRASQSVSRYLNWCQQKPGKAPKLLTYAASSLQSGVPSRFSGSGSGTDFTLTISSLQPEDFAAYFCQQSYSTPPITFGQGTRLEIK | ratio | 30 |
| H1H8808P (antibody, human IgG1, V domains shown, Human IgG1 (H1H)) VH: QVQLVESGGGVVQPGRSLRLSCVASGFTFSNYGIHWVRQAPGKGLEWVAVISDDGSFKFYADSVKGRFTISRDNSKNTLYLQMNSLRVEDSAVYHCAKWQHNWNDGGFDYWGQGTLVTVSS VL: EIVLTQSPDTLSLSPGERATLSCRASQSLSSNYLAWYRQKPGQAPRLLIYGISSRATGIPDRFSGSGSGTDFTLTISRLEPEDFAVYYCQQYGSSPWTFGQGTKVEIK | ratio | 4 |
